system: ATP; test: switch fluorescence ratio, 500 uM ATP over buffer (Cy3 cluster intensity, sum of 5 cycles each) (fold (ratio)); higher = stronger signal-on switching upon ATP binding; sequences stand for … in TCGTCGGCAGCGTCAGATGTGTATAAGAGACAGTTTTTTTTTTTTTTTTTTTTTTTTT…TC; settings: aptamer strand: ATP DNA aptamer (quencher-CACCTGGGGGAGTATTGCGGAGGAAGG + anchor), 100 nM annealed; ATP concentration: 500 uM;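 note: ATP exposure 15 min at 22 °C before imaging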
Examples of sequences with documented switch fluorescence ratio follow.
MEASURED_PARAMETER: switch fluorescence ratio

>>> df
    item_sequence  study_target         measured_parameter  recorded_result
 0     GGGCCACCAG           ATP  switch fluorescence ratio             1.01
 1     GTTAGGTTAT           ATP  switch fluorescence ratio                1
 2     TAAAAAAAGC           ATP  switch fluorescence ratio             1.03
 3     TAAGTTTGTG           ATP  switch fluorescence ratio            0.996
 4     TTACAAGAGG           ATP  switch fluorescence ratio            0.989
 5     TGATGTACGT           ATP  switch fluorescence ratio                1
 6     AGTGGGTTAG           ATP  switch fluorescence ratio             1.02
 7     GCACGAGGGG           ATP  switch fluorescence ratio            0.979
 8     CGGAATTGGG           ATP  switch fluorescence ratio            0.974
 9      TCGGTAATC           ATP  switch fluorescence ratio             1.15
10     TTCGTTGGTG           ATP  switch fluorescence ratio            0.969
11     TAGGGGCGAT           ATP  switch fluorescence ratio             1.01
12     GATATGCTAT           ATP  switch fluorescence ratio            0.992
13     CTGAGTAGTT           ATP  switch fluorescence ratio             1.01
14     GAAGGGCTGT           ATP  switch fluorescence ratio            0.993
15     CGCGCGGGTG           ATP  switch fluorescence ratio             1.12
16     TTTTATGCGA           ATP  switch fluorescence ratio             1.01
17     TAGGTGGCGT           ATP  switch fluorescence ratio             1.01
18     CGTAATGTTA           ATP  switch fluorescence ratio             1.01
19     ATTGAGGATG           ATP  switch fluorescence ratio             1.07
20     GATATGCTAC           ATP  switch fluorescence ratio              1.2
21     CGCTAGGAAA           ATP  switch fluorescence ratio             1.01
22     ATGGTGGCCG           ATP  switch fluorescence ratio            0.997
23     CAGGGGGCGT           ATP  switch fluorescence ratio            0.984
24     AATACGGCAC           ATP  switch fluorescence ratio             1.85
25     CAGCAAGGGA           ATP  switch fluorescence ratio             1.12
26     TTGTGTGTTA           ATP  switch fluorescence ratio            0.969
27     TTTGAGGGGG           ATP  switch fluorescence ratio             1.01
28     ATTGAAACGA           ATP  switch fluorescence ratio             1.08
29     GCTTGAGATT           ATP  switch fluorescence ratio            0.986
30     GTGTGGGATC           ATP  switch fluorescence ratio             1.01
31     TGAATTATGT           ATP  switch fluorescence ratio            0.985
32     GCCAGGGGTG           ATP  switch fluorescence ratio             1.47
33     GCGGGTCTGC           ATP  switch fluorescence ratio            0.963
34     GGACCAAGTG           ATP  switch fluorescence ratio             1.03
35     TTTCGTTGAA           ATP  switch fluorescence ratio            0.996
36     TTGATTGGAT           ATP  switch fluorescence ratio                1
37     AAAGGAAATT           ATP  switch fluorescence ratio                1
38     GGTTGAGGTG           ATP  switch fluorescence ratio             1.01
39     ATATGCGATG           ATP  switch fluorescence ratio             0.97
40     TTGTTGGAGT           ATP  switch fluorescence ratio            0.985
41     GAAGTGGCTT           ATP  switch fluorescence ratio             0.98
42     GTTGGTTTTG           ATP  switch fluorescence ratio             1.01
